- experimental details: autophagy modulators in MEF cells, primary screen, imaging, high-content, MEF GFP-LC3 (AID 463193);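 as to toxicity: cell loss after 18 h compound exposure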
- conditions: MEF GFP-LC3 puncta imaging, at 10 µM; measured here: cell loss, nuclei count
The campaign covered roughly 190,000 compounds. About 1,900 (1%) were called active. The list comes from a sample in which actives are over-represented; it also holds close analogues and randomly drawn compounds.
readout label: toxicity

The following compounds have reported results that may help.
O=C(NCc1ccco1)c1nn2cccnc2c1Cl; -10.5%
Cc1cc(C(=O)N/N=C/c2ccc(O)c([N+](=O)[O-])c2)c(C)n1-c1ccc(F)cc1; 2.16%
CSc1ncnc2sc(C)c(C)c12; 24.5%
Fc1cc(Br)ccc1NC(=S)Nc1cccnc1; -1.9%
CCc1nnc(NS(=O)(=O)c2ccc(NS(=O)(=O)c3ccccc3)cc2)s1; 20.8%

Input Cc1ccc(OCc2n[nH]c(=S)n2-c2ccccc2)cc1 . Output toxicity: -18.6%

Form field toxicity, entry Cc1ccccc1CN1C[C@@H]2C[C@@H](c3cn(C)nc3-c3ccccc3)N3CCC[C@@]23C1=O : -5.59%

Query O=C(/C=C/c1cn(-c2ccccc2)nc1-c1ccc2c(c1)OCCO2)NCCCN1CCOCC1 yields toxicity of -8.43%

The value of toxicity measured for the compound CC[C@H]1OC(=O)[C@H](C)[C@@H](O[C@H]2C[C@@](C)(OC)[C@@H](O)[C@H](C)O2)[C@H](C)[C@@H](O[C@@H]2O[C@H](C)C[C@H](N(C)C)[C@H]2O)[C@](C)(O)C[C@@H](C)[C@@H]2N[C@@H](COCCOC)O[C@H]([C@H]2C)[C@]1(C)O turned out to be 20.5%

###

- experimental details: autophagy modulators in MEF cells, primary screen, imaging, high-content, MEF GFP-LC3 (AID 463193);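 as to % cells with GFP-LC3 spots: spot-positive cell cutoff set from DMSO-treated cells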
- conditions: MEF GFP-LC3 puncta imaging, at 10 µM; stronger effect = higher value
The whole screen tested about 190,000 compounds, of which about 1,900 (1%) were called active. This excerpt belongs to a sample that is enriched for actives.
Quick reference: % cells with GFP-LC3 spots of the listed items.
Please state the figure in %; there is no need to write the unit.

Previously resolved entries follow.
COc1ccc(N2CCN(C(c3cc4ccc(C)cc4[nH]c3=O)c3nnnn3C3CCCC3)CC2)cc1 (centres undefined); 5.85
COc1cc(/C=N\Nc2ccc([N+](=O)[O-])cn2)ccc1OCC(=O)O; 1.45
COc1ccc2c(c1)CCc1c(C(=O)N3CCc4ccccc4C3)noc1-2; 1.3
OC(CNCC1CCCO1)Cn1c2ccc(Br)cc2c2cc(Br)ccc21 (centres undefined); 7.36
Cc1ccc(C(=O)NCC2CCCO2)o1 (centres undefined); 12.6
COCCN(Cc1nc(-c2ccc(C(F)(F)F)cc2)no1)C(C)C; 9.15
O=C(O)CCn1c(SCc2cc(=O)n3ccccc3n2)nc2ccsc2c1=O; 0.605
O=C(Cn1cnc2c(nnn2Cc2ccc(F)cc2)c1=O)NCc1ccc2c(c1)OCO2; 2.36
Cc1ccc(-n2c(C)cc(/C=N/Nc3ccc([N+](=O)[O-])cn3)c2C)c(C)c1; 52
COc1ccc(NC(=O)Cn2c(=O)n(Cc3ccco3)c(=O)c3ccccc32)cc1; 3.23

# compound CCN1C(=O)/C(=c2\s/c(=C3\Sc4ccccc4N3C)c(=O)n2C)N(C)C1=S ; its % cells with GFP-LC3 spots = 1.17

###

- experimental details: autophagy modulators in MEF cells, primary screen, imaging, high-content, MEF GFP-LC3 (AID 463193);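 as to toxicity: cell loss after 18 h compound exposure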
- conditions: MEF GFP-LC3 puncta imaging, at 10 µM; measured here: cell loss, nuclei count
Among all 190,000 compounds or so, about 1,900 (1%) were called active. The list comes from a sample in which actives are over-represented; it also holds close analogues and randomly drawn compounds.
// reported toxicity for each item listed
Dear colleague, please return just the value in %, with no unit written.

Worked cases, toxicity given:
O=C(/C=C/c1ccc(F)cc1)Nc1cccc(S(=O)(=O)Nc2cccc(C(F)(F)F)c2)c1; 11.4
O=C(CSc1cccc2cccnc12)N/N=C/c1cccnc1; 24.2
C=CCNC(=O)CCCC(=O)NCC=C; 1.29
O=C1CCC(=O)N1c1ccc(NCCc2ccccc2F)c([N+](=O)[O-])c1; 31.5
COc1ccc(N=Cc2c(O)[nH]c3ccccc23)cc1OC; 0.85
O=C(CN1C(=O)NC2(CCCC2)C1=O)NCC1CCCO1 (stereo not given); 7.52
O=C(NCCOc1ccccc1F)Nc1ccc(Br)cc1; 10.2
CC1(C)CC(=O)c2ccc(O)cc2O1; 7.65

toxicity for CCOc1ccccc1/C=c1\sc2nc(-c3ccco3)nn2c1=O is -24.1

Data point: O=C(CCN1C(=O)C2C3C=CC(C3)C2C1=O)Oc1ccc2ccccc2c1 (stereo not given) ; toxicity = 19.4

Query Cc1ccc(S(=O)(=O)N2CCCC2C(=O)OCc2nc3sc(C)c(C)c3c(=O)[nH]2)cc1 (stereo not given) yields toxicity of 2.2

// sample CCN(CC)S(=O)(=O)c1cc([N+](=O)[O-])ccc1NNC(=O)Nc1ccccc1 , its toxicity was -10.5

For O=C(O)COc1ccc(/C=N/O)cc1Br the compound record lists toxicity as 9.84

###

- experimental details: autophagy modulators in MEF cells, primary screen, imaging, high-content, MEF GFP-LC3 (AID 463193);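 as to toxicity: cell loss after 18 h compound exposure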
- conditions: MEF GFP-LC3 puncta imaging, at 10 µM; measured here: cell loss, nuclei count
In all, about 190,000 compounds went through this assay and about 1,900 (1%) were called active. The entries come from a sample that favours actives as a whole.
readout label: toxicity (%)
Response body: numeric value in %, unit text excluded.

CCOC(=O)c1cc(NC(=O)c2ccc(Cl)cc2)c(=O)oc1-c1ccccc1; -0.561

Lookup result for CCOC(=O)NNC(=O)c1ccc(Cl)cc1 ; measured toxicity: 8.61

Briefly, toxicity measured for CCC1=C(C(=O)OC)C(c2cc(OC)ccc2OC)C(C#N)=C(N)O1 (stereo unspecified) : -10.7

Recorded result, CCOc1ncccc1C(=O)N(C)CC(=O)Nc1ccc(F)cc1 , toxicity: -12.3

Noted for COC(=O)c1ccc(NC(=O)c2cc(Cl)ccc2OC)cc1 : its toxicity reads -8.44

###

- experimental details: autophagy modulators in MEF cells, primary screen, imaging, high-content, MEF GFP-LC3 (AID 463193);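 as to toxicity: cell loss after 18 h compound exposure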
- conditions: MEF GFP-LC3 puncta imaging, at 10 µM; measured here: cell loss, nuclei count
Screen size: about 190,000 compounds; about 1,900 (1%) were called active. What follows is part of a selection rich in actives, with near analogues and random picks from the rest.
readout label: toxicity (%)
Supply the numeric figure in %, leaving out any unit text.

Documented toxicity of Cc1ncoc1C(=O)NCCC(c1ccccc1)c1ccccc1 : 11.5

Documented toxicity of COc1cccc2c(O)cc(=O)n(C)c12 : 15.8

GET /value?item= CN1CCN(NC(=O)c2ccc(S(=O)(=O)N3CCCCCC3)cc2)CC1 &field=toxicity returns 28

toxicity recorded for this molecule, COc1ccc(C2c3c(C)nn(-c4ccccc4)c3NC(=O)N2c2ccccc2)cc1 (configuration not stated) , is 17.6

Value of measured toxicity for the entry Fc1ccc2nc(-c3ccccc3)nc(SCc3nnc(-c4ccccc4)o3)c2c1 : 16.1

###

- experimental details: autophagy modulators in MEF cells, primary screen, imaging, high-content, MEF GFP-LC3 (AID 463193);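 as to % cells with GFP-LC3 spots: spot-positive cell cutoff set from DMSO-treated cells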
- conditions: MEF GFP-LC3 puncta imaging, at 10 µM; stronger effect = higher value
Out of some 190,000 compounds screened, about 1,900 (1%) were called active. Only a selection was taken, and actives are over-represented in it overall.
The molecules listed here are annotated with their % cells with GFP-LC3 spots.
Note: unit % is implicit; provide only the numeric part.

% cells with GFP-LC3 spots measured on CCCCNC(=O)CCn1c(=O)c2ccccc2n(Cc2cc(C)ccc2C)c1=O = 8.22

% cells with GFP-LC3 spots measured on COc1cc(CNc2ncn[nH]2)ccc1OCc1ccccc1C = 0.305

Note to self: % cells with GFP-LC3 spots recorded for CCN(CC)C(=O)CSc1nnc(C2CCCCC2)o1 was 4.79

Sample CCCc1[nH]nc2c1C(c1c(C)nn(-c3ccccc3)c1Cl)C(C#N)=C(N)O2 (stereo unspecified) ; % cells with GFP-LC3 spots observed: 16.1

For this molecule ( CN1CCN(CC(=O)Nc2sc3c(c2C#N)CCC(C(C)(C)C)C3)CC1 (stereo unspecified) ), measured % cells with GFP-LC3 spots is 41.9

Input Nc1nonc1-c1nc2ccccc2n1CCC(=O)O . Output % cells with GFP-LC3 spots: 6.83

###

- experimental details: autophagy modulators in MEF cells, primary screen, imaging, high-content, MEF GFP-LC3 (AID 463193);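 as to % cells with GFP-LC3 spots: spot-positive cell cutoff set from DMSO-treated cells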
- conditions: MEF GFP-LC3 puncta imaging, at 10 µM; stronger effect = higher value
The campaign covered roughly 190,000 compounds. About 1,900 (1%) were called active. Shown is part of a subset that was picked to be rich in actives.
Each item that follows carries a reported % cells with GFP-LC3 spots.

Sample answers from the record:
O=C(c1ccc2ccccc2n1)N1CCN(c2ccccc2Cl)CC1; 4.83% (inactive)
CCc1cc(Br)ccc1NC(=O)C1CCCO1 (stereo not drawn); 2.25% (inactive)

Now examine the next entry.
Documented % cells with GFP-LC3 spots of COC(=O)C1=C(NC(=O)C(C)(C)C)CCS1 : 5.79% (inactive)

The origin of these recorded values is PubChem BioAssay AID463193.
